Target: Excitatory amino acid transporter 3 (Homo sapiens, UniProt P43005)
Sequence (P43005 whole entry): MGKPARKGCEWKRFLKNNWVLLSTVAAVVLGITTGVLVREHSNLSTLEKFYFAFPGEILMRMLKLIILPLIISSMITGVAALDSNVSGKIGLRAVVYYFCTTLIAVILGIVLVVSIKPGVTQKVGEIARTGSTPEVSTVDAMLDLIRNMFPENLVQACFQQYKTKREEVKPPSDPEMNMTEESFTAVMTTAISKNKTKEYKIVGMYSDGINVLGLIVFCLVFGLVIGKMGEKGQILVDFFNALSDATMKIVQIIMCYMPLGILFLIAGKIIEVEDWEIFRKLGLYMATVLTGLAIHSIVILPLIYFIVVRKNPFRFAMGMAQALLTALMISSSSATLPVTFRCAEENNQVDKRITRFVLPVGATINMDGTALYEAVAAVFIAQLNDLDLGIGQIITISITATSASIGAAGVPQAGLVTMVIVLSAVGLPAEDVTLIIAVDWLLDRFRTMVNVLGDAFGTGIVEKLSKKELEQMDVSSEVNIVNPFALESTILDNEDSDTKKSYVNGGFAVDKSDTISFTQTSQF
Assay: Substrate uptake by the Excitatory Amino Acid Transporter 3 (EAAT3, SLC1A1) as assessed by the fluorescent FLIPR membrane potential dye in HEK-293 JumpIN-SLC1A1 cells (PubChem AID: 1794812)
Format: functional, cell-based, HEK293
Conditions: read-out: EC50
Endpoint Name: EC50

Sample N[C@@H](CS)C(=O)O [CYSTEINE] ; EC50 observed: 161 µM
